tested on: Escherichia coli TOP10; experiment: shrunken log2 fold change of peptide-encoding DNA abundance (4.5 h post-induction vs induction); higher = less antimicrobial activity (less host growth inhibition); settings: time post-induction: 4.5 h; library: site-saturation at positions 5, 18, 19, 20;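 note: peptides expressed intracellularly from a pBAD plasmid library in pooled LB shake-flask culture, induced with 0.3% L-arabinose, DNA abundance read by NGS, three biological replicates, DESeq2 with apeglm shrinkage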
Would you please tag the item T when its shrunken log2 fold change is 0.06 or above, and F when it is below?

1) RRIRGRPPRLPRPRPRPASIPRP : T
2) RRIRYRPPRLPRPRPRPCMFPRP : F
3) RRIRARPPRLPRPRPRPIWIPRP : T
4) RRIRNRPPRLPRPRPRPDPGPRP : F
5) RRIRRRPPRLPRPRPRPDEDPRP : T
6) RRIRFRPPRLPRPRPRPWQTPRP : F
7) RRIRPRPPRLPRPRPRPATIPRP : F
8) RRIRVRPPRLPRPRPRPAWKPRP : T
9) RRIRCRPPRLPRPRPRPPHQPRP : T
10) RRIRHRPPRLPRPRPRPNPYPRP : F
11) RRIRWRPPRLPRPRPRPAYVPRP : F
12) RRIRLRPPRLPRPRPRPMLGPRP : F
13) RRIRRRPPRLPRPRPRPNVFPRP : T
14) RRIRCRPPRLPRPRPRPISYPRP : F
15) RRIRFRPPRLPRPRPRPDVKPRP : F
16) RRIRVRPPRLPRPRPRPAISPRP : F
17) RRIRMRPPRLPRPRPRPMGPPRP : T
18) RRIRGRPPRLPRPRPRPVNVPRP : F
19) RRIRMRPPRLPRPRPRPMQIPRP : F
20) RRIRARPPRLPRPRPRPNWFPRP : F
21) RRIRNRPPRLPRPRPRPTDTPRP : F
22) RRIRGRPPRLPRPRPRPCHVPRP : F
